Test system: Actinomyces israeli
Format: biochemical
settings: strain DK2-3; β-naphthylamine liberated after 60 minutes, 37° C.
Peptide text beside a SMILES is read from it. * marks the point of attachment. βNA = c1ccc2cc(N*)ccc2c1
property: Aminopeptidase activity (nmol)
Give the value, in units of nmol, as a plain number.

The examples below pair each entry with its known result.
Exam item: Look up and report Aminopeptidase activity, with Actinomyces israeli as system, for Cl.N=C(N)NCCC[C@H](NC(=O)CNC(=O)CNC(=O)OCc1ccccc1)C(=O)Nc1ccc2ccccc2c1
Marked response: 0

Exam item: Look up and report Aminopeptidase activity, with Actinomyces israeli as system, for CSCCC(N)C(=O)Nc1ccc2ccccc2c1 (racemic)
Marked response: 33

Exam item: Look up and report Aminopeptidase activity, with Actinomyces israeli as system, for NC(=O)[C@@H](N)CCC(=O)O
Marked response: 0

Exam item: Look up and report Aminopeptidase activity, with Actinomyces israeli as system, for CC(C)C[C@H](NC(=O)[C@@H]1CCCN1C(=O)CN)C(=O)Nc1ccc2ccccc2c1 [Gly-Pro-Leu] (H-Gly-Pro-Leu-βNA)
Marked response: 0

Others:
Exam item: Look up and report Aminopeptidase activity, with Actinomyces israeli as system, for C[C@H](N)C(=O)N[C@@H](C)C(=O)N[C@@H](Cc1ccccc1)C(=O)Nc1ccc2ccccc2c1 [Ala-Ala-Phe] (H-Ala-Ala-Phe-βNA)
Marked response: 0

Exam item: Look up and report Aminopeptidase activity, with Actinomyces israeli as system, for CC(C)C[C@H](N)C(=O)NCC(=O)O [Leu-Gly, Leucyl-glycine] (H-Leu-Gly-OH)
Marked response: 0
